// provenance: PubChem BioAssay (EPA / NIEHS)

# Read-out: DNA damage-inducible transcript 3 (DDIT3), DDIT3 (gene 1649)
# Assay info: LTEA_HepaRG_DDIT3: Life Technologies and Expression Analysis (LTEA) Assay for DNA damage-inducible transcript 3 (DDIT3) using HepaRG (AID 2283488)
# Setup conditions: mRNA level, 48 h; actives raise or lower the signal
Calls of active or inactive are those of the source. The calls were made as follows: active = hit-call score of the fitted dose curve at least 0.9, where 1 is the maximum; inactive = score below 0.9.
Labels: class 1 = active, class 0 = inactive

> print(dat)
                                   molecule    class
1  Cc1[nH]cnc1C[C@H]1CCc2c(C)c3ccccc3n2C1=O  class 1
2  CC[C@H](C)C(=O)O[C@H]1C[C@@H](C)C=C2C=C[C@H](C)[C@H](CC[C@@H]3C[C@@H](O)CC(=O)O3)[C@H]21  class 0
3                        C1N2CN3CN1CN(C2)C3  class 0
4       CC(C)=CCCC(C)CCO (stereo not given)  class 0
5                       CC(C)=CCC/C(C)=C\CO  class 0

----------
# Read-out: Cyclin Dependent Kinase Inhibitor 1A (CDKN1A), CDKN1A (gene 1026)
# Assay info: LTEA_HepaRG_CDKN1A: Life Technologies and Expression Analysis (LTEA) Assay for Cyclin Dependent Kinase Inhibitor 1A (CDKN1A) using HepaRG (AID 2283450)
# Setup conditions: mRNA level, 48 h; actives raise or lower the signal
Calls of active or inactive are those of the source. How the source made its calls: active means hit-call score of the fitted dose curve at least 0.9, where 1 is the maximum; inactive means score below 0.9.
Labels: yes = active, no = inactive

Compound	Class
Nc1cccc(N)c1	no
Cc1c(-c2cccnc2)c2ccccc2n1CCCCC(=O)O	no
CCOC(=O)COc1ccc2c(c1)CC(NCC(O)c1cccc(Cl)c1)CC2 (stereo unspecified)	no
CC[C@H]1CC[C@H](NCc2cc3c(cc2OC)[C@H]2C[C@H]2C(=O)N3C)[C@H](c2ccccc2)N1	no
O=c1n(CC2CO2)c(=O)n(CC2CO2)c(=O)n1CC1CO1 (stereo unspecified)	yes
CCc1cc(SCc2sc(-c3ccc(C(F)(F)F)cc3)nc2CN2CCN(c3ccc(OC)cc3)CC2)ccc1OCC(=O)O	yes
CCOCCO	no
COCCOCCOCCOC	no
CCCN(C1CCN(C(=O)C2CCNCC2)CC1)[C@@H]1CCc2ccc(OC)cc2C1	no
CC(C)CCO	no
CCCC(=O)OCC	no
O=C(O)c1cc(N=Nc2ccc(S(=O)(=O)Nc3ccccn3)cc2)ccc1O	no
COc1ccc(-n2nc(C(F)F)cc2-c2ccc(S(C)=O)cc2)cc1 (stereo unspecified)	no
COC(=O)c1ccccc1O	no
CCCCC(CC)COC(=O)c1ccc(C(=O)OCC(CC)CCCC)cc1 (stereo unspecified)	no
CC(=O)OC[C@H]1O[C@@](COC(C)=O)(O[C@H]2O[C@H](COC(C)=O)[C@@H](OC(C)=O)[C@H](OC(C)=O)[C@H]2OC(C)=O)[C@@H](OC(C)=O)[C@@H]1OC(C)=O	no

----------
# Read-out: urokinase plasminogen activator (uPA), PLAU (gene 5328)
# Assay info: BSK_KF3CT_uPA: BioMAP Diversity Plus: KF3CT Assay for urokinase plasminogen activator (uPA) Biomarker Activity (AID 2283075)
# Setup conditions: primary human keratinocytes with fibroblasts; actives raise or lower the signal
Activity calls are given as the source filed them. The calls were made as follows: active = hit-call score of the fitted dose curve at least 0.9, where 1 is the maximum; inactive = score below 0.9.
Value type: AC50

> print(dat)
                                    compound           reading
 1                               O=C1CCCCCN1          inactive
 2  CC(C)CCCCCCCOC(=O)CCCCC(=O)OCCCCCCCC(C)C          inactive
 3  COc1ccc(/C=C/S(=O)(=O)NC(=O)c2ccc(C)cc2Cl)cc1          inactive
 4                          CCCCCCCCCCCCCCCO          inactive
 5                       CC(C)=CCC/C(C)=C\CO          inactive
 6  COc1ccc2sc(C(=O)Nc3nnn[nH]3)c(OC(C)C)c2c1  29.5 µM (active)
 7                              COCCOCCOCCOC          inactive
 8  CC[C@H]1CC[C@H](NCc2cc3c(cc2OC)[C@H]2C[C@H]2C(=O)N3C)[C@H](c2ccccc2)N1          inactive
 9                        CCCCCCc1ccc(O)cc1O  31.6 µM (active)
10  COc1cccc(-c2ccc(/C=C\CN3CCCCCC3)cc2Cl)c1  33.5 µM (active)
11                              Cc1ccc(O)cc1          inactive
12  Fc1ccccc1[C@@H](F)COC1CCC(Nc2ncnc3[nH]ncc23)CC1 (some centres not stated)          inactive
13   CNCc1ccc(NC(=O)c2c[nH]c3c2C(=O)CCC3)cc1          inactive
14  O=C(CCCCCCCCc1cccnc1)N1CCC(C=C(c2ccccc2)c2ccccc2)CC1  15.7 µM (active)
15  Nc1nc2ncc(CNc3ccc(C(=O)N[C@@H](CCC(=O)O)C(=O)O)cc3)nc2c(=O)[nH]1          inactive
16                          COC(=O)c1ccccc1O          inactive
17  CC(=O)c1ccc2c(c1)[C@H](NC(=O)c1ccc(F)cc1)[C@@H](O)C(C)(C)O2          inactive

----------
# Assay info: APR_HepG2_P-H2AX_24hr: Apredica 24-hour HepG2 Assay for H2AX Phosphorylation (AID 2282920)
# Setup conditions: high-content imaging, actives raise or lower the signal
Activity calls are given as the source filed them. How the source made its calls: active means hit-call score of the fitted dose curve at least 0.9, where 1 is the maximum; inactive means score below 0.9.
Labels: active, inactive

Molecule	Class
Nc1nc2ncc(CNc3ccc(C(=O)N[C@@H](CCC(=O)O)C(=O)O)cc3)nc2c(=O)[nH]1	inactive
COCCOc1cc2cc(C(=O)NC3CCN(C(C)C)CC3)n(CC(=O)Nc3ccc(Cl)cn3)c2cn1	active
C=CC(=C)CCC=C(C)C	inactive
On1ccccc1=S	inactive
Fc1ccccc1[C@@H](F)COC1CCC(Nc2ncnc3[nH]ncc23)CC1 (stereo partly drawn)	active
Nc1ccc(Nc2ccccc2)cc1	active
CC1=CC(=O)CC(C)(C)C1	inactive
C1=CCCC=CCCC=CCC1	inactive
CC[C@H]1CC[C@H](NCc2cc3c(cc2OC)[C@H]2C[C@H]2C(=O)N3C)[C@H](c2ccccc2)N1	inactive
CC(=O)OC[C@H]1O[C@@](COC(C)=O)(O[C@H]2O[C@H](COC(C)=O)[C@@H](OC(C)=O)[C@H](OC(C)=O)[C@H]2OC(C)=O)[C@@H](OC(C)=O)[C@@H]1OC(C)=O	inactive
O=c1n(CC2CO2)c(=O)n(CC2CO2)c(=O)n1CC1CO1 (stereo not drawn)	active
NC(=O)NO	inactive
CNS(=O)(=O)c1cc(C(=O)N2CCC(CCN3C4CCC3CC(n3c(C)nc5ccccc53)C4)(c3cccc(F)c3)CC2)c(Cl)cc1F (stereo not drawn)	active
CCNc1ccccc1	inactive
Cc1c(-c2cccnc2)c2ccccc2n1CCCCC(=O)O	inactive
Cc1ccc(C)c(O)c1	inactive
CN(C)c1ccc(N=NS(=O)(=O)O)cc1	inactive
O=C(CCCCCCCCc1cccnc1)N1CCC(C=C(c2ccccc2)c2ccccc2)CC1	inactive
O=C(O)c1cc(N=Nc2ccc(S(=O)(=O)Nc3ccccn3)cc2)ccc1O	inactive
C=CCCCCCCCCC(=O)O	inactive
COC(=O)c1ccccc1O	inactive
CCCCCCCCCCCCc1ccccc1	inactive
C1N2CN3CN1CN(C2)C3	inactive

----------
# Assay info: BSK_3C_Vis: BioMAP Diversity Plus: 3C Assay for Morphology Visualization (AID 2283025);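 also: fitted both ways so gain or loss versus DMSO counts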;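 as to AC50: light microscopy image of cell morphology used as background control; cells imaged 24 h after dosing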
# Setup conditions: primary human endothelial cells (HUVEC)
The source made the active and inactive calls. Rule for the calls: active = hit-call score of the fitted dose curve at least 0.9, where 1 is the maximum; inactive = score below 0.9.
Value type: AC50

> print(dat)
                                   molecule         reading
1                Cn1c(=O)c2c(ncn2C)n(C)c1=O        inactive
2     O=P(OC(CCl)CCl)(OC(CCl)CCl)OC(CCl)CCl  39 µM (active)
3     CC(C)=CCCC(C)CCO (stereo unspecified)        inactive
4    O=C(O)CC(O)C(=O)O (stereo unspecified)        inactive
5                         C=CCCCCCCCCC(=O)O        inactive
6  CC(C)(O)c1coc(S(=O)(=O)NC(=O)Nc2c3c(cc4c2CCC4)CCC3)c1        inactive

----------
# Read-out: Interleukin-8 (IL8), CXCL8 (gene 3576)
# Assay info: BSK_SAg_IL8: BioMAP Diversity Plus: SAg Assay for Interleukin-8 (IL8) Biomarker Activity (AID 2283094)
# Setup conditions: primary human HUVEC with PBMC; actives raise or lower the signal
Activity calls are given as the source filed them. Rule for the calls: active = hit-call score of the fitted dose curve at least 0.9, where 1 is the maximum; inactive = score below 0.9.
Labels: 1.0 = active, 0.0 = inactive

> print(dat)
                                   molecule  class
1                      CC1=CC(=O)CC(C)(C)C1    0.0
2   CNCc1ccc(NC(=O)c2c[nH]c3c2C(=O)CCC3)cc1    0.0
3                              COCCOCCOCCOC    0.0
4  COc1ccc(/C=C/S(=O)(=O)NC(=O)c2ccc(C)cc2Cl)cc1    0.0
5  COc1cccc(-c2ccc(/C=C\CN3CCCCCC3)cc2Cl)c1    1.0
6  CC(C)c1cccc(C(C)C)c1N1C(=O)c2ccc(O)cc2C1=O    0.0
7  O=C(O)c1cccc(N(Cc2cccnc2)c2ccc(OC(F)F)c(OC(F)F)c2)c1    1.0
8  CCOC(=O)c1ccc(C2CCC(NC[C@H](O)COc3ccc(O)c(NS(C)(=O)=O)c3)CC2)cc1 (stereo partly drawn)    1.0
